- Test system: BT-549 breast
- assay-summary: NCI tumour cell line growth inhibition, 48 h
attribute-measured: TGI

Some solved cases for reference:
molecule | TGI
CC1NC(=O)C2=C1C(=O)NC(=O)C2 (stereo unspecified) | > 100 µM
O=C(CCN1CCCCC1)N1CCc2c([nH]c3ccccc23)C1c1cccnc1 (stereo unspecified) | > 86.2 µM
O=C(NCC1CCCO1)c1ccc(NC2=C(Cl)C(=O)N(Cc3ccccc3)C2=O)cc1 (stereo unspecified) | 33.9 µM

In: Quote TGI reported for `Cc1cc(Nc2nc(N[C@@H](C)c3ncc(F)cn3)ncc2Cl)n[nH]1` please.
Out: > 100 µM

In: Using known records, supply TGI for `Cc1ccc(C)n2c1nc1ccccc12`
Out: > 100 µM

In: Return value of TGI for input `CCN(Cc1cccc(Cl)c1)c1ccc(CO)c(Cl)c1` , no commentary.
Out: 24.3 µM

In: Answer with reported TGI of `Clc1ccccc1-c1nnc2c(Cc3ccccc3)nc3ccccc3n12`
Out: > 100 µM

In: For CSc1nc2c(c(=O)n1C)CN(C1CCCCC1)C(=O)C(c1ccccc1)N2 (stereo unspecified) , write its TGI.
Out: 49.4 µM

----------
- Test system: A549 NSCLC
- assay-summary: NCI tumour cell line growth inhibition, 48 h
attribute-measured: TGI

molecule | attribute-measured | endpoint-value
COc1cccc(C2SC(N)=Nc3c2c(C)nn3C(=O)Cc2ccccc2)c1 (stereo not given) | TGI | > 100 µM
COc1ccccc1/C=C/C1=NN(c2cccc(S(=O)(=O)O)c2)C2(C1)C(Cl)C(=O)N2c1nc2ccccc2s1 (stereo not given) | TGI | > 100 µM
c1ccc(CNCCN(CCNCc2ccccn2)Cc2ccc3ccccc3c2)nc1 | TGI | 5.38 µM
Clc1cccc(-c2nnc(-c3nn(-c4ccccc4)c4nc5ccccc5nc34)o2)c1 | TGI | > 100 µM

Okay, now this molecule:
In: Return reported TGI. Input molecule: COc1ccc(N=NC(=O)NC(CC(C)C)C(=O)NCC(=O)O)cc1 (stereo not given)
Out: > 61.9 µM

----------
- System: TK-10 renal
- assay-summary: NCI tumour cell line growth inhibition, 48 h
# reported GI50; entries follow

Some solved entries appear below for comparison.
smiles-repr | endpoint-value
COc1cccc(Nc2nc3ccccc3c3occc23)c1 | 5.79 µM
CC(=O)[CH-]C(=O)c1ccccc1.CC(=O)[CH-]C(=O)c1ccccc1.CC(=O)[CH-]C(=O)c1ccccc1.[Nd+3].[OH3+] | > 100 µM
Cn1c2c(c3c(Cl)nncc31)Cc1ccccc1-2 | 26.2 µM
CC[C@@H](C)/C=C(C)/C=C/C(=O)c1c(O)c(-c2ccc(O)cc2)cn(O)c1=O | 0.524 µM

In: Supply GI50 measured with TK-10 renal for `O=[N+]([O-])c1cc([N+](=O)[O-])c(Nn2c3ccccc3c3ccccc32)c([N+](=O)[O-])c1` .
Out: 0.315 µM

----------
Known TGI of a selection of compounds
- Test system: DMS 114 small cell lung
- assay-summary: NCI tumour cell line growth inhibition, 48 h

Use these answered entries as a reference point.
compound | endpoint-value
COC1(OC)C2(Cl)C(Cl)=C(Cl)C1(Cl)C1C2C2CC1(C(=O)O)c1ccccc12 (configuration not stated) | 39.9 µM
COc1nc(N)c(NC(C)=O)c(=O)n1C | > 100 µM
CNS(=O)(=O)NNS(=O)(=O)c1ccc(OC)cc1 | > 100 µM
Nc1c(Cl)ncnc1NCCCCCCCCCCCCNc1ncnc(Cl)c1N | 2.49 µM
CSCSCC(CO)NC(=O)/C(C)=C\c1c(C)[nH]c(=O)[nH]c1=O (configuration not stated) | > 250 µM
CCOc1ccccc1N=Nc1c(-c2ccccc2)nn(C(=O)CC(=O)Nc2cccc(C)c2)c1-c1ccccc1 | > 100 µM
CN(/N=C/c1ccnc2ccccc12)c1c([N+](=O)[O-])cc([N+](=O)[O-])cc1[N+](=O)[O-] | > 100 µM
Cn1cc2ccccc2c1-c1nc(F)nc(Oc2ccc3c(c2)CC[C@@H]2C3CC[C@@]3(C)C2C[C@H](O)[C@@H]3O)n1 (some centres not stated) | 25 µM

In: Write down the reported TGI (system: DMS 114 small cell lung) of O=C(Nc1ccc(Cl)cc1Cl)OC(Cn1cncn1)c1ccc(Cl)cc1Cl (configuration not stated)
Out: 29.8 µM

In: Report value only: TGI, DMS 114 small cell lung, `Nc1ccccc1C(=O)CCC1C(=O)NC(=S)NC1=O`
Out: > 100 µM

In: Give DMS 114 small cell lung TGI for the following compound: `CCN(CC)CSc1nc2ccccc2[nH]1`
Out: > 100 µM

In: Give the observed TGI of `Clc1cccc(-c2nnc(-c3nn(-c4ccccc4)c4nc5ccccc5nc34)o2)c1` for DMS 114 small cell lung.
Out: > 100 µM

----------
Recorded measurements of TGI, one per entry
- Tested on: SF-295 CNS
- assay-summary: NCI tumour cell line growth inhibition, 48 h
// units = µM; emit number, no label

compound | endpoint-unit | TGI
CC(C)=CCCC(C)CCOS(=O)C(F)(F)F (centres undefined) | µM | 86.8

Okay, next one:
In: For `O=C1C=CC(=O)c2c(O)c3c(c(O)c21)C[C@H](O)[C@H](O)[C@@H]3O` , write its TGI.
Out: 20.3

----------
- System: IGROV1 ovarian
- assay-summary: NCI tumour cell line growth inhibition, 48 h; in the data active = GI50 below about 0.43 µM; inactive = the rest
# output must be one of active, inactive

Illustrative cases are given below, each with its answer.
molecule | discrete-label
CCCCCCCC/C=C/CCCCCCCC1=NC(C)(C)CN1CCO | inactive
Nc1nc(/C=C\c2ccccc2)nc(N2CCN(c3ccccc3)CC2)n1 | inactive
CC(C)COc1nc2c(c(=O)n(C)c(=O)n2C)n1C | inactive
O=[N+]([O-])c1cc([N+](=O)[O-])c(Nn2c3ccccc3c3ccccc32)c([N+](=O)[O-])c1 | active

In: Hi team, can someone confirm the assay call for `COc1ccc(/C=C2/SC(Nc3nc(-c4nc(NC5=NC(=O)/C(=C\c6ccc(OC)cc6)S5)sc4C)c(C)s3)=NC2=O)cc1` ?
Out: inactive

In: Tell me the recorded outcome of this test for CC1NC(=O)C2=C1C(=O)NC(=O)C2 (configuration not stated) .
Out: inactive

In: Entry O=C(NCC1CCCO1)c1ccc(NC2=C(Cl)C(=O)N(Cc3ccccc3)C2=O)cc1 (configuration not stated) : call = ?
Out: inactive

----------
- Tested on: OVCAR-4 ovarian
- assay-summary: NCI tumour cell line growth inhibition, 48 h
The following compounds are listed with their measured TGI values.

The cases that follow already have their TGI on record.
compound | target-entity | TGI
COc1ccccc1/C=C/C1=NN(c2cccc(S(=O)(=O)O)c2)C2(C1)C(Cl)C(=O)N2c1nc2ccccc2s1 (stereo not given) | OVCAR-4 ovarian | > 100 µM
COC1OC2COC(C)(C)OC2C(OC(C)=O)C1NC(=O)N(CCCl)N=O (stereo not given) | OVCAR-4 ovarian | > 100 µM
CC1(C)CCCC(C)(C2CCC3(C)C2C(O)CC2C4(C)CCC(O)C(C)(C)C4CCC23C)O1 (stereo not given) | OVCAR-4 ovarian | > 100 µM

In: # return TGI for CCN(CC)CCN(C)c1ccc(CO)c2c1C(=O)c1ccccc1S2=O (stereo not given) , test system: OVCAR-4 ovarian
Out: 11.7 µM

In: State TGI (OVCAR-4 ovarian) of `Nc1nc(/C=C\c2ccccc2)nc(N2CCN(c3ccccc3)CC2)n1` .
Out: > 100 µM

----------
- Test system: SNB-75 CNS
- assay-summary: NCI tumour cell line growth inhibition, 48 h
The following compounds are listed with their measured GI50 values.

The examples below pair each entry with its known result.
compound | GI50
O=C(NCC1CCCO1)c1ccc(NC2=C(Cl)C(=O)N(Cc3ccccc3)C2=O)cc1 (centres undefined) | 20 µM
Cc1cc(Nc2nc(N[C@@H](C)c3ncc(F)cn3)ncc2Cl)n[nH]1 | 8.85 µM
CCOc1ccn(-c2ccc(F)cc2)c(=O)c1C(=O)Nc1ccc(Oc2ccnc(N)c2Cl)c(F)c1 | 2.39 µM

Read the next record carefully.
In: Provide SNB-75 CNS GI50 reading for O=C(O)C1[O][Sb][O]C(C(=O)O)C1O (centres undefined) .
Out: > 100 µM

----------
- System: MDA-MB-435
- assay-summary: NCI tumour cell line growth inhibition, 48 h
attribute-measured: TGI (µM)
The answer is to be given in µM; state only the numeric part.

In: Determine its reported TGI: C=C1C(=O)O[C@H]2C1C[C@@H](OC(C)=O)/C(C)=C/CC[C@@]1(C)O[C@H]21 (stereo not given in full)
Out: 87.7

In: Give me measured TGI, please, for this compound: `C/C(=C(\c1ccc(OCCN2CCCCCC2)cc1)c1ccc(OC(=O)c2ccccc2)cc1)c1ccc(Cl)cc1`
Out: 8.87

In: # return recorded TGI for entry `COC(=O)/C=C1/OC(c2ccccc2)=C(C)C1=O`
Out: 27.5

In: Tell us which TGI value is on record for O=C(NCC1CCCO1)c1ccc(NC2=C(Cl)C(=O)N(Cc3ccccc3)C2=O)cc1 (stereo not given)
Out: 21.7

In: Output TGI of C=CCC(N[C@@H](CO)c1ccccc1)c1cn(C(=O)OCC)c2ccccc12 (stereo not given in full)
Out: 55.9

In: Provide TGI value for the following compound: `C=C(C(=O)OC)[C@@H]1C[C@@H](OC(C)=O)C2=C[C@H](C[C@@]3(C)O[C@@H]3C3=CC(C)=C(O3)[C@H]1OC(C)=O)OC2=O`
Out: 37.9
